Taken from PubChem BioAssay (NCI).

- TEST: NCI Yeast Anticancer Drug Screen. Data for the mec2-1 strain (AID 157)
- RECORDED CONDITIONS: S. cerevisiae mec2-1 strain, at 50.0 µM, hits give high values
Compounds without any hit were thinned out: in the full panel of roughly 79,000, 15% have a hit.
Assignment: determine reported growth inhibition for the given molecules.
One number for each entry, in %.

Reference set, count: 8
O=C1C=CC(=Nc2ccc3c(c2)C(=O)c2cc(F)ccc2-3)O1
-6.7
CC(C)Nc1ncnc2c1cnn2-c1ccccc1
-17.1
c1ccc(-c2nc(-c3ccccc3)c(-c3ccccc3)[nH]2)cc1
28.1
COc1ccc(C2=C(N)c3c(Cl)cccc3C2=O)cc1
3.4
O=CNC(Cc1ccccc1)c1ccc(OCc2ccccc2)cc1 (configuration not stated)
5
CC(=O)Nc1ccc(F)cc1
-25.7
CCOc1cc(/C=C2/C=C(c3ccc(OC)cc3)OC2=O)ccc1O
0.5
Cc1cc(C)c(N=Nc2cc(C)c(N)cc2N)c(S(=O)(=O)O)c1
-1.35

// each listed molecule needs a value for growth inhibition
1. Cc1ccc(S(=O)(=O)N/N=C2/C(=N/NS(=O)(=O)c3ccc(C)cc3)C3CCC2C3)cc1
2. COc1cc(C(C)O)c[n+](CCc2c[nH]c3ccccc23)c1 (configuration not stated)
3. COC(=O)C(C)n1c(C)csc1=S (configuration not stated)

1. 4.85
2. -19.5
3. 4.85

// each listed molecule needs a value for growth inhibition
1. C=CCOC(=O)CCC(C#N)(C#N)CCC(=O)OCC=C
2. C/C(N=NS(=O)(=O)c1ccccc1)=C1\C=CC=CN1O
3. CC(C)(Cl)C1CCC(CC(Cl)(Cl)Cl)CC1 (configuration not stated)
4. CC1CC(C)CN(S(=O)(=O)c2cc(Cl)c(Oc3ccc([N+](=O)[O-])cc3Cl)c(Cl)c2)C1 (configuration not stated)
5. Cc1ccc(O)c(C(C)C)c1
6. COC1/C=C/OC2(C)Oc3c(C)c(O)c4c(c3C2=O)C(N)=C(Nc2ccccc2)C(=NC(=O)C(C)=CC=CC(C)C(O)C(C)C(O)C(C)C(OC(C)=O)C1C)C4=O (configuration not stated)
7. C[N+]1(C)CCC(O)C(c2ccccc2)C1 (configuration not stated)

1: -7.1; 2: -1.5; 3: -16.4; 4: -28.3; 5: -48.8; 6: 45.5; 7: -0.45

// each listed molecule needs a value for growth inhibition
1. Nc1c2c(nn1-c1ccccc1)C(=O)N(CCc1ccccc1)C2
2. COc1ccc(-n2c(=O)c(N=Nc3ccccc3Cl)c(O)n(-c3ccccc3OC)c2=S)cc1
3. O=C(O)c1cscn1.O=C(O)c1cscn1.[I][Pt][I]
4. O=C(O)c1cccc(CO)c1O
5. c1ccc2c(c1)nn1c3ccc4nonc4c3[n-][n+]21
6. NCCCCC(C(=O)NCC(=O)O)N(C(=O)OCc1ccccc1)C(=O)OCc1ccccc1 (configuration not stated)
7. CN(C)CCNCCN

1: 14.2; 2: 4.65; 3: 3.55; 4: -10.5; 5: -0.5; 6: -4.6; 7: -28.4

// each listed molecule needs a value for growth inhibition
1. CCC(C)(S)CN (configuration not stated)
2. CC(C)=NN/C=N/S(=O)(=O)c1ccc(C)cc1
3. Cc1ccc(N=c2oc3c(ccc4ccccc43)nc2Nc2ccc(C)cc2)cc1
4. CN(C)/C=C/c1ccnc2c1C(=O)c1ccccc1C2=O
5. COC(=O)/C(=C\Nc1cccc(C)n1)S(=O)(=O)c1ccc(C)cc1
6. CC(C)C(=O)c1ccccc1Cl
7. COc1ccc(OC)c(NC(=O)CCC/C(CC(=O)c2ccc(O)c(OC)c2)=N\Nc2ccc([N+](=O)[O-])cc2)c1
8. O=[N+]([O-])c1ccc(-c2ccccc2CO)cc1

1. -2.55
2. 6.05
3. -32.5
4. 90.5
5. -1.55
6. -7.05
7. -0.7
8. -10.2
